All values here come from patent US20240409556A1.

For each of the compounds below, state its pIC50.
System: YAP/TAZ-TEAD transcription
Assay Text: Reporter gene assay for measuring the inhibition of YAP/TAZ-TEAD transcription (TEAD-responsive element luciferase reporter in Hek293T cells)
Format: cell-based
Study Conditions: Homo sapiens, HEK-293T, 24 h, 24 hours incubation
pIC50: −log10 of the molar value.

Look up pIC50 for this compound: C=CC(=O)N1CCN2C(C1)CN(c1ccc(C(F)(F)F)cc1)C1C2C1(Cl)Cl (centres unmarked) > 6.00

Look up pIC50 for this compound: CNS(=O)(=O)N[C@@H]1C[C@@H]2CN(c3ccc(C(F)(F)F)cc3)c3cccnc3N2C1 > 6.00

Look up pIC50 for this compound: CC(=O)NCC1CN(c2ccc(C(F)(F)F)cc2)c2cccnc2O1 (centres unmarked) > 6.00

Look up pIC50 for this compound: CS(=O)(=O)N1CCN2c3ccccc3N(c3ccc(C(F)(F)F)cc3)CC2C1 (centres unmarked) > 6.00

Look up pIC50 for this compound: CC(=O)N[C@@H]1C[C@@H]2CN(c3ccc(C(F)(F)F)cc3)c3ccc(C)nc3N2C1 > 6.00

Look up pIC50 for this compound: O=C(O)C1CCN(c2ncccc2Nc2ccc(C(F)(F)F)cc2)CC1 > 6.00

Look up pIC50 for this compound: Cn1cncc1CN1CCN(c2ccc(C(F)(F)F)cc2)c2ccccc21 > 6.00

Look up pIC50 for this compound: CNC(=O)N[C@@H]1C[C@@H]2CN(c3ccc(C(F)(F)F)cc3)c3cccnc3N2C1 > 6.00

Look up pIC50 for this compound: CC(=O)N1CCN2c3ncccc3N(c3ccc(C(F)(F)F)nc3)CC2C1 (centres unmarked) 5.00 to 6.00

Look up pIC50 for this compound: CC(=O)N[C@@H]1C[C@@H]2CN(c3ccc(C(F)(F)F)cc3)c3cc(C)cnc3N2C1 > 6.00

Look up pIC50 for this compound: C=CC(=O)NCC1CN(c2ccc(C(F)(F)F)cc2)c2cccnc2N1C (single isomer, unassigned) [27-En1] > 6.00

Look up pIC50 for this compound: O=C(O)C1CCN2c3ccc(Cl)cc3N(c3ccc(C(F)(F)F)cc3)CC2C1 (centres unmarked) 5.00 to 6.00

Look up pIC50 for this compound: C=CC(=O)NCC1CN(c2ccc(C(F)(F)F)cc2)c2cccnc2N1C (centres unmarked) [compound 27] > 6.00

Look up pIC50 for this compound: O=C(O)[C@H]1C[C@@H]2CN(c3ccc(C(F)(F)F)cc3)c3cccnc3N2C1 5.00 to 6.00

Look up pIC50 for this compound: C=CC(=O)N1CCN2C(C1)CN(c1ccc(C(F)(F)F)cc1)C1CCC12 (single isomer, unassigned) > 6.00

Look up pIC50 for this compound: CS(=O)(=O)N1CCN2C(=O)CN(c3ccc(C(F)(F)F)cc3)CC2C1 (centres unmarked) < 5.00

Look up pIC50 for this compound: C=CC(=O)NCC1CN(c2ccc(C(F)(F)F)cc2)c2ccccc2N1S(C)(=O)=O (centres unmarked) > 6.00

Look up pIC50 for this compound: C=CC(=O)NCC1CN(c2ccc(C(F)(F)F)cc2)c2ccccc2N1CC(N)=O (centres unmarked) > 6.00

Look up pIC50 for this compound: CC(=O)N1CCN2C(=O)CN(c3ccc(C(F)(F)F)cc3)CC2C1 (centres unmarked) < 5.00

Look up pIC50 for this compound: O=C(C1CC1)N1CCN2c3ncccc3N(c3ccc(C(F)(F)F)cc3)CC2C1 (centres unmarked) > 6.00

Look up pIC50 for this compound: NCC(=O)N[C@@H]1C[C@@H]2CN(c3ccc(C(F)(F)F)cc3)c3cccnc3N2C1 > 6.00

Look up pIC50 for this compound: CC(=O)N1CC2CN(c3ccc(C(F)(F)F)cc3)c3cccnc3N2C1=O (centres unmarked) < 5.00

Look up pIC50 for this compound: CNC(=O)O[C@H]1C[C@@H]2CN(c3ccc(C(F)(F)F)cc3)c3cccnc3N2C1 > 6.00
